Origin of measurements: paper PMC6269719

# ASSAY_NOTES: Bidirectional transport across Caco-2 cell monolayers
# CONDITION_LABEL: human, Caco-2, pH 7.4
VALUE_TYPE: Papp A→B at 60 min, 50 μM (×10⁻⁶ cm/s)
Response body: numeric value in ×10⁻⁶ cm/s, unit text excluded.

Reported Papp A→B at 60 min, 50 μM for OC[C@@H](O)[C@@H](O)[C@H](O)[C@H](O)CO [mannitol, reference compound] : what is it?
0.43
